System: MDA-MB-468
Test: phospho-S6 immunofluorescence (DAPI-normalised), per-plate z-score; higher = higher phospho-S6 signal (less pathway suppression)
Conditions: co-treatment: vehicle; 24 h
Where a name gives a salt, the structure may show the parent alone.
readout name: phospho-S6 immunofluorescence (z-score)
Please reply with the number alone, leaving off any unit.

Examples with answers:
>>> measured_number("O=C(CCCN1CCC(O)(c2ccc(Cl)cc2)CC1)c1ccc(F)cc1 [Haloperidol] (compound 10 µM)")
0.93
>>> measured_number("COc1ccc2ccc(=O)oc2c1CC=C(C)C [Osthole] (compound 10 µM)")
0.23
>>> measured_number("Nc1ccc(/C=C/c2cccc(C(=O)O)n2)cc1 (compound 10 µM)")
1.07
>>> measured_number("Cc1ccccc1N1CCN(CCc2nnc3n2CCCC3)CC1 [Dapiprazole (hydrochloride)] (compound 10 µM)")
-0.32
>>> measured_number("C[C@@H]1C[C@H]2[C@@H]3CCC4=CC(=O)C=C[C@]4(C)[C@@]3(F)[C@@H](O)C[C@]2(C)[C@@]1(O)C(=O)CO [Dexamethasone] (compound 10 µM)")
1.02

Request: Report phospho-S6 immunofluorescence (z-score) for CN(C)CCCN1c2ccccc2Sc2ccc(Cl)cc21 [Chlorpromazine (hydrochloride)] (compound 10 µM) please.
Result: 3.4

Request: Next up: CN(C)CCCN1c2ccccc2Sc2ccc(C(F)(F)F)cc21 [Triflupromazine (hydrochloride)] (compound 10 µM)
Result: 2.53

----------
Test system: MDA-MB-468
Assay: phospho-S6 immunofluorescence (DAPI-normalised), per-plate z-score; higher = higher phospho-S6 signal (less pathway suppression)
Details: co-treatment: lapatinib 1 uM; 24 h
readout name: phospho-S6 immunofluorescence (z-score)

Request: State the recorded phospho-S6 immunofluorescence (z-score) for this entry: CCn1c(=O)c2c(nc(/C=C/c3ccc(OC)c(OC)c3)n2C)n(CC)c1=O [Istradefylline] (compound 10 µM)
Result: 0.09

Request: Also need Fc1ccc(-c2cncc(CN3CCN(c4cccc5c4OCCO5)CC3)c2)cc1 [Adoprazine] (compound 10 µM) , thanks.
Result: -1.05

Request: Same for CCNC(=O)[C@@H]1CCCN1C(=O)[C@H](CCCN=C(N)N)NC(=O)[C@H](CC(C)C)NC(=O)[C@@H](C)NC(=O)[C@H](Cc1ccc(O)cc1)NC(=O)[C@H](CO)NC(=O)[C@H](Cc1c[nH]c2ccccc12)NC(=O)[C@H](Cc1cnc[nH]1)NC(=O)[C@@H]1CCC(=O)N1 [Alarelin (Acetate)] (compound 10 µM)
Result: -0.01

----------
Tested on: MDA-MB-468
Experiment: phospho-S6 immunofluorescence (DAPI-normalised), per-plate z-score; higher = higher phospho-S6 signal (less pathway suppression)
Settings: co-treatment: vehicle; 24 h
Structures can show the parent of a compound that is named as a salt.
The threshold is inclusive: phospho-S6 immunofluorescence (z-score) of exactly 0.5 counts as satisfied; values below receive not satisfied.

Reference set (6 entries):
>>> class_name("COc1ccc(/C=C/C(=O)Nc2ccccc2C(=O)O)cc1OC [Tranilast] (compound 10 µM)")
"not satisfied"
>>> class_name("COc1cc(NC(=O)CCN2CCC(OC(=O)Nc3ccccc3-c3ccccc3)CC2)c(Cl)cc1CNC[C@H](O)c1ccc(O)c2[nH]c(=O)ccc12 [Batefenterol] (compound 10 µM)")
"not satisfied"
>>> class_name("CN1CCCC(n2nc(Cc3ccc(Cl)cc3)c3ccccc3c2=O)CC1 (stereo not drawn) [Azelastine (hydrochloride)] (compound 10 µM)")
"not satisfied"
>>> class_name("N=C(N)NCCCCN [Agmatine (sulfate)] (compound 10 µM)")
"satisfied"
>>> class_name("CCOc1cc(N)c(Cl)cc1C(=O)NCC1CN(Cc2ccc(F)cc2)CCO1 (stereo not drawn) [Mosapride (citrate)] (compound 10 µM)")
"satisfied"
>>> class_name("CN(C)CC/C=C1/c2ccccc2Sc2ccc(Cl)cc21 [Chlorprothixene] (compound 10 µM)")
"not satisfied"

Turning now to a further record.
Request: Dear colleague, could you confirm whether Nc1nc2c(cnn2CCc2ccccc2)c2nc(-c3ccco3)nn12 (compound 10 µM) has phospho-S6 immunofluorescence (z-score) at or above 0.5?
Result: satisfied
